The origin of these recorded values is patent US20060135773A1.

valueType: melting point

{"structureAsSmiles": "O=C(OCc1ccccc1)N(Cc1ccc(C(F)(F)P(=O)(O)O)cc1)Cc1ccc(C(F)(F)P(=O)(O)O)cc1", "melting point": "106 to 108 °C"}

State its melting point: CN(Cc1ccc(C(F)(F)P(=O)(O)O)cc1)Cc1ccc(C(F)(F)P(=O)(O)O)cc1
268 to 270 °C

State its melting point: O=P(O)(O)C(F)(F)c1ccc(CN(Cc2ccc(C(F)(F)P(=O)(O)O)cc2)S(=O)(=O)c2ccccc2Cl)cc1
170 to 172 °C

State its melting point: O=C(O)c1ccc(CN(Cc2ccc(C(F)(F)P(=O)(O)O)c(Br)c2)S(=O)(=O)c2ccccc2)cc1
160 to 162 °C

State its melting point: O=P(O)(O)C(F)(F)c1ccc(CN(Cc2ccc(C(F)(F)P(=O)(O)O)cc2)S(=O)(=O)CCc2ccccc2)cc1
181 to 183 °C

State its melting point: O=C(NCc1ccccc1)N(Cc1ccc(C(F)(F)P(=O)(O)O)cc1)Cc1ccc(C(F)(F)P(=O)(O)O)cc1
124 to 127 °C

State its melting point: O=C(c1ccccc1)N(Cc1ccc(C(F)(F)P(=O)(O)O)cc1)Cc1ccc(C(F)(F)P(=O)(O)O)cc1
87 to 89 °C

State its melting point: COc1ccccc1S(=O)(=O)N(Cc1ccc(NC(=O)C(=O)O)cc1)Cc1ccc(NC(=O)C(=O)O)cc1
187 to 189 °C (dec.)

State its melting point: O=P(O)(O)C(F)(F)c1ccc(CN(Cc2ccc(-c3ccccc3)cc2)Cc2ccc(C(F)(F)P(=O)(O)O)cc2)cc1
125 to 128 °C

###

target: PTP-1B (Homo sapiens, UniProt P18031); construct: PTP-1B (purified, 1 mg/mL) as a 1:250 dilution; test: pNPP tyrosine phosphatase inhibition assay, PTP-1B; type: biochemical; conditions: pNPP assay, PTP-1B; read-out: Activity Class (IC50 ranges)
Sequence (P18031 1-321 limits assumed): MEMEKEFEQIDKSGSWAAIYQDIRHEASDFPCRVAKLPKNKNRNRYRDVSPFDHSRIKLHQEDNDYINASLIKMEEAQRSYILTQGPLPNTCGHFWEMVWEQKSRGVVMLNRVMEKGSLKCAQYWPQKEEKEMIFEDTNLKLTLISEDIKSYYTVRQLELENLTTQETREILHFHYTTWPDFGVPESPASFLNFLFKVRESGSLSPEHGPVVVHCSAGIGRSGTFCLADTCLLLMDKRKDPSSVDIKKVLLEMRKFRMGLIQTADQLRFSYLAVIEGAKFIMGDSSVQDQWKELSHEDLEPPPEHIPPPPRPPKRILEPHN
valueType: IC50

Past entries and their recorded results:
{"compound": "O=P(O)(O)C(F)(F)c1ccc(CN(Cc2ccc(C(F)(F)P(=O)(O)O)c(Br)c2)S(=O)(=O)c2ccc3ccccc3c2)cc1Br [Compound 99]", "IC50": "< 99 nM"}
{"compound": "COc1ccccc1S(=O)(=O)N(Cc1ccc(C(F)(F)P(=O)(O)O)c(Cl)c1)Cc1ccccc1N1CCCCC1 [Compound 208]", "IC50": "250 to 499 nM"}
{"compound": "COc1ccccc1S(=O)(=O)N(Cc1ccc(OCC(=O)O)c(C(=O)O)c1)Cc1ccccc1-c1ccccc1 [Compound 224]", "IC50": "> 25000 nM"}
{"compound": "N#Cc1cccc(-c2ccc(CN(Cc3ccc(C(F)(F)P(=O)(O)O)c(Cl)c3)S(=O)(=O)c3ccccc3Cl)cc2)c1 [Compound 163]", "IC50": "100 to 249 nM"}
{"compound": "COc1ccccc1S(=O)(=O)N(Cc1ccc(C(=O)O)cc1)Cc1ccc(-c2nnn[nH]2)cc1 [Compound 116]", "IC50": "> 25000 nM"}

State its IC50: CS(=O)(=O)N(Cc1ccc(C(F)(F)P(=O)(O)O)cc1)Cc1ccc(C(F)(F)P(=O)(O)O)cc1 [Compound 131]
2500 to 25000 nM

State its IC50: O=C(O)c1ccc(CN(Cc2ccc(C(F)(F)P(=O)(O)O)c(Br)c2)S(=O)(=O)c2ccccc2)cc1 [Compound 31]
100 to 249 nM

State its IC50: O=P(O)(O)C(F)(F)c1ccc(CN(Cc2ccc(C(F)(F)P(=O)(O)O)cc2)S(=O)(=O)c2ccccc2-c2ccccc2)cc1 [Compound 93]
250 to 499 nM

State its IC50: O=P(O)(O)C(F)(F)c1ccc(CN(Cc2ccccc2-c2ccccc2)S(=O)(=O)c2cnccc2I)cc1Cl [Compound 230]
100 to 249 nM

State its IC50: O=C(O)c1ccc(CN(Cc2ccc(Cl)c(Cl)c2)S(=O)(=O)c2ccccc2Cl)cc1Br [Compound 94]
> 25000 nM
